procedure-summary: DNA intercalators displacing acridine orange, dose response, artefact control for KSHV LANA DNA-binding inhibitor project, biochemical, fluorescence polarization, cherry-picked samples, set 2 (AID 504727)
stated-conditions: Acridine orange-DNA displacement; series mostly up to 35 µM
Active and inactive are the calls of the source.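 The calls were made as follows: active = fitted half-maximal concentration AC50 at or below ten times the highest valid tested dose, with signal falling as DNA is displaced (actives reach about 34 µM in these data); inconclusive = flat fit at moderate signal loss, or poor fit quality; inactive = the rest, including signal rising instead of falling.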
Use one of these outcomes when replying: active, inactive

structure-string | qualitative-label
Nc1ccc2ccc3cccc[n+]3c2c1 | active
COCCNC(=O)Cn1cc(/C=C2\C(=O)NC(=O)N(c3cccc(C)c3C)C2=O)c2ccccc21 | active
COC(=O)C1=C(c2ccc(OC(F)(F)F)cc2)C[C@@H]2CC[C@H]1N2C(=O)NC1CCCCC1 | inactive
N/C(=N\N=C/c1ccc(-c2ccc(O)c(C(=O)O)c2)o1)N[N+](=O)[O-] | inactive

Consider the additional compound presented here.
Query string: Please indicate how the test categorized COc1ccc(OC)c(N2C(=O)NC(=O)/C(=C\c3ccc([N+](=O)[O-])s3)C2=O)c1 .
Result string: inactive
